Taken from patent US11739070B2.

molecular target: UniProtKB P21730; experiment: hC5a DISCO IC50 assay (PathHunter beta-arrestin, antagonist mode); conditions: CHO-K1 C5AR1 beta-arrestin cell line; antagonist vs 1-10 nM C5a agonist; geometric mean values; read-out: C5aR IC50
Sequence (P21730 whole entry): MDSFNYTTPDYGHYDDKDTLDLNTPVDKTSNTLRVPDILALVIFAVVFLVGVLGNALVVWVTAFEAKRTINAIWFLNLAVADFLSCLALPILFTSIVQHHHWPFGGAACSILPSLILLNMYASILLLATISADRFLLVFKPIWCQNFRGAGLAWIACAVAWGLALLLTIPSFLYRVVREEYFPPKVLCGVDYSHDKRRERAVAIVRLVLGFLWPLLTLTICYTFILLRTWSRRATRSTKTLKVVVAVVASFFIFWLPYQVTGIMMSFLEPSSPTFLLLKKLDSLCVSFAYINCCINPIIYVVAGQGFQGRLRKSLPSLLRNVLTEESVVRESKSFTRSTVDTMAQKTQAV
Reported IC50 values follow for various molecules
property name: IC50 (nM)

COc1cccc2c1n(Cc1cnccc1C(C)C)c(=O)n2[C@@H]1CCN(c2c(C)cccc2F)C1; 9
COc1cccc2c1n(Cc1ccccc1C(F)(F)F)c(=O)n2C1CC2CC1CN2c1c(C)cccc1F (stereo not drawn); 118
CNC(=O)c1cccc2c1n(Cc1ccccc1C(F)(F)F)c(=O)n2[C@@H]1CCN(c2c(F)cccc2C#N)C1; 391
COc1cccc2c1n(Cc1ccccc1C(F)(F)F)c(=O)n2[C@@H]1CCN(c2c(F)cccc2CN2CCC(OC)C2)C1 (stereo partly drawn); 156
COc1cccc2c1n(Cc1ccccc1C(F)(F)F)c(=O)n2C1CCN(C(=O)C(C)(C)C)CC1; 1330
COc1cccc2c1n(Cc1cnccc1C(F)(F)F)c(=O)n2C1CCN(C(=O)OC(C)(C)C)CC1; 1840
COc1cccc2c1n(Cc1ncccc1C(F)(F)F)c(=O)n2C1CCN(C(=O)OC(C)(C)C)CC1; 2920
CCOC(=O)C1CN(C(=O)OC(C)(C)C)CCC1n1c(=O)n(Cc2ccccc2C(F)(F)F)c2c(OC)cccc21 (stereo not drawn); 179
COc1cccc2c1n(Cc1ccccc1C(F)(F)F)c(=O)n2C1CCN(c2c(C)c(C3CC3)nn2C)CC1; 185
COc1cccc2c1n(Cc1ccccc1C(F)(F)F)c(=O)n2[C@@H]1CCN(c2c(F)cccc2CN(C)C)C1; 227
COc1cccc2c1n(Cc1ccccc1C(F)(F)F)c(=O)n2[C@@H]1CCN(c2c(F)cccc2C(C)O)C1 (stereo partly drawn); 44
COc1cccc2c1n(Cc1ccccc1C(F)(F)F)c(=O)n2C1CCN(c2c(C)cccc2F)CC1F (stereo not drawn); 27
COc1cccc2c1n(Cc1ncccc1C(F)(F)F)c(=O)n2C1CCN(c2c(C)cccc2F)CC1; 12
COc1cccc2c1n(Cc1cccnc1C(F)(F)F)c(=O)n2C1CCN(c2c(F)cccc2F)CC1; 178
CCOC(=O)N1CC[C@@H](n2c(=O)n(Cc3ccccc3C(F)(F)F)c3c(OC)cccc32)C1; 84
